# Tested on: HEK-293 human embryonic kidney cells ATCC CRL-1573
# setupConditions: read-out: HEK CC50; initial CO-ADD screening, 20 h
assayEndpoint: CC50 (µM)
Write the number in µM without appending the unit.

In the examples that follow, each entry is paired with its recorded CC50.
# sampleSmiles, resultUnit, CC50
records = [
    ("O=C([O][Eu]([O]C(=O)c1ccccc1F)[O]C(=O)c1ccccc1F)c1ccccc1F.c1cnc2c(c1)ccc1cccnc12", "µM", 9.9),
    ("O=C([O][Eu]([O]C(=O)c1ccccc1F)[O]C(=O)c1ccccc1F)c1ccccc1F.c1ccc(-c2ccnc3c2ccc2c(-c4ccccc4)ccnc23)cc1", "µM", 14.7),
    ("Nc1cc2cccnc2c2ncccc12.O=C([O][Eu]([O]C(=O)c1ccccc1F)[O]C(=O)c1ccccc1F)c1ccccc1F", "µM", 3.3),
    ("O=C([O][Eu]([O]C(=O)c1ccc(F)cc1F)[O]C(=O)c1ccc(F)cc1F)c1ccc(F)cc1F.c1ccc(-c2ccnc3c2ccc2c(-c4ccccc4)ccnc23)cc1", "µM", 15.9),
]

Lab note: next molecule to report on.
input: Give its CC50 value. Item: "O=C([O][Eu]([O]C(=O)c1ccc(F)cc1F)[O]C(=O)c1ccc(F)cc1F)c1ccc(F)cc1F.c1cnc2c(c1)ccc1cccnc12"
output: 13.6

----------
# Test system: HEK-293 human embryonic kidney cells ATCC CRL-1573
# setupConditions: initial CO-ADD screening, 20 h
Recorded measurements of HEK CC50, one per entry

Example cases with answers are listed next.
# compound, assayEndpoint, result
rows = [
    ("c1cnc([S][Au][PH](c2ccco2)(c2ccco2)c2ccco2)nc1", "HEK CC50", ">32 µg/mL"),
    ("Cc1c(C)c(-c2ccc(-c3ccccc3)cc2)[c-](C)c1C.Cc1ccccc1NC1=[NH+][Ir]([Cl])[NH]C(NS(=O)(=O)c2cccc3c(N(C)C)cccc23)=N1", "HEK CC50", ">32 µg/mL"),
    ("Cc1cccc2[n+]1[Pd-2]([Cl])([Cl])[n+]1c(C)cccc1C(C(C)(C)C)=C=C2c1ccccc1", "HEK CC50", "1.1 µg/mL"),
    ("Cc1c(C)c(C)[c-](C)c1C.Cc1c(C)c(C)[c-](C)c1C.[Cl-].[Cl-].[Cl-].[Cl-].[Rh+3].[Rh+3]", "HEK CC50", ">32 µg/mL"),
    ("O=C([O][Ag])c1ccc(N2N=C(/C=C/c3ccccc3)CC2c2ccccc2)cc1.O=C([O][Ag])c1ccc(N2N=C(/C=C/c3ccccc3)CC2c2ccccc2)cc1 (racemic)", "HEK CC50", "> 32 µg/mL"),
    ("O=[N+]([O-])[O-].[Ag+] [AgNO3, reference compound]", "HEK CC50", "> 32 µg/mL"),
]

Proceeding to the next compound to report its HEK CC50.
input: Look up HEK CC50: CC1=CC=CC2=C(c3ccccc3)[C](=[Au]([Cl])([Cl])[Cl])C(c3ccccc3)(c3cccc(C)n3)N12 (stereo not shown)
output: > 32 µg/mL

----------
Quick reference: RBC HC10 of the listed items.
# Test system: human red blood cells
# Format: cell-based
# setupConditions: ranges obtained upon retesting, new batch

# compound, systemTested, RBC HC10
rows = [
    ("C1=CCCC=CCC1.[I][Pt][I]", "human red blood cells", "> 100 µM"),
]

Now consider the entry below.
input: # input compound: "C1=CCCC=CCC1.[Cl][Pt][Cl]" ; wanted: its RBC HC10
output: > 100 µM
